Values from patent US20250376533A1

In this section we review reported koff values for a set of binders.
- Experimental target: T1, human PD-L1 antigen (ACROBiosystems) (human, UniProt Q9NZQ7 19-238)
- T1 construct: Bought antigen coated on ELISA plates
- T1 sequence (Q9NZQ7 19-238 limits assumed): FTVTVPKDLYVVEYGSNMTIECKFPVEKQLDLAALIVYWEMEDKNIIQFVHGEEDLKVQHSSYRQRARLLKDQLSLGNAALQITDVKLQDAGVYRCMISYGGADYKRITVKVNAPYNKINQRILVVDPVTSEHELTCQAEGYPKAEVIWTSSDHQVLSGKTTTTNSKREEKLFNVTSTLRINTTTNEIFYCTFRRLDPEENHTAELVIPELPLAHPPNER
- Protocol: BLI (Gator), antibody captured on PA probe, human PD-L1 in solution
Measure name: koff (s⁻¹)

>>> endpoint_value("anti-PD-L1 monoclonal antibody 1102 (antibody, human IgG1, V domains shown) VH: EVQLVESGGGLVQPGGSLRLSCAASGFTFDYYTQCWFRQAPGKEREWVSCISSSEGSTYYADSVKGRFTISRDNAKNTVYLQMNSLRAEDTAVYYCAARKGGPLTIENFFDYWGQGTQVTVSS")
0.00451
>>> endpoint_value("anti-PD-L1 monoclonal antibody 1541 (antibody, human IgG1, V domains shown) VH: EVQLVESGGGLVQPGGSLRLSCAASGFTFDYYTQCWFRQAPGKEREWVSCISSSEGSTYYADSVKGRFTISRDNSKNTVYLQMNSLKTEDTAVYYCAARKGGPLTIENFFDYWGQGTQVTVSS")
0.00293
>>> endpoint_value("anti-PD-L1 monoclonal antibody 1031 (antibody, human IgG1, V domains shown) VH: EVQLVESGGGLVQPGGSLRLSCAASGFTFEYYTKCWFRQAPGKEREWVSCISTSEGSTYYADSVKGRFTISRDNAKNTVYLQMNSLRAEDTAVYYCAARKGGPLTIENFFDYWGQGTQVTVSS")
0.00913
>>> endpoint_value("anti-PD-L1 monoclonal antibody 1029 (antibody, human IgG1, V domains shown) VH: EVQLVESGGGLVQPGGSLRLSCAASGFTLDYYSKCWFRQAPGKEREWVSCIGSSDGSTYYADSVKGRFTISRDNAKNTVYLQMNSLRAEDTAVYYCAARNGGPLTIENFFDYWGQGTQVTVSS")
0.00422
